# Measured On: anti-H3K4me3 antibody ab8580
# Method Description: peptide microarray binding signal (635 nm), min-max normalized on array (fraction of array maximum); higher = stronger binding
# Experimental Context: peptide region: Unmod H1 variant; binder concentration: 1:10,000 dilution
The reader will find reported peptide microarray binding signal values listed item by item below.
Value Kind: peptide microarray binding signal

{"Binder": "APAPAEKTPVKKK [Unmod H1 variant A P A P A E K T P V K K K]", "Value Observed": 0.00223}
{"Binder": "SETVPPAPAASAA [Unmod H1 variant S E T V P P A P A A S A A]", "Value Observed": 0.00223}
{"Binder": "GTGASGSFKLNKK [Unmod H1 variant G T G A S G S F K L N K K]", "Value Observed": 0.00114}
{"Binder": "KAKPVKASKPKKA [Unmod H1 variant K A K P V K A S K P K K A]", "Value Observed": 0.000685}
{"Binder": "KAASGEAKPKAKK [Unmod H1 variant K A A S G E A K P K A K K]", "Value Observed": 0.00171}
{"Binder": "KPKTAKPKAAKPK [Unmod H1 variant K P K T A K P K A A K P K]", "Value Observed": 0.00143}
{"Binder": "AVAASKERSGVSL [Unmod H1 variant A V A A S K E R S G V S L]", "Value Observed": 0.00479}
{"Binder": "KAAKPKKAAAKKK [Unmod H1 variant K A A K P K K A A A K K K]", "Value Observed": 0.00143}
{"Binder": "PKKAKAAKPKKAP [Unmod H1 variant P K K A K A A K P K K A P]", "Value Observed": 0.00171}
{"Binder": "KPKAAKARVTKPK [Unmod H1 variant K P K A A K A R V T K P K]", "Value Observed": 0.00097}
{"Binder": "SETAPAAPAAPAP [Unmod H1 variant S E T A P A A P A A P A P]", "Value Observed": 0.00337}
{"Binder": "TENSTSAPAAKPK [Unmod H1 variant T E N S T S A P A A K P K]", "Value Observed": 0.00188}
{"Binder": "YDVEKNNSRIKLG [Unmod H1 variant Y D V E K N N S R I K L G]", "Value Observed": 0.00114}
{"Binder": "KTAKPKKAAPKKK [Unmod H1 variant K T A K P K K A A P K K K]", "Value Observed": 0.000913}
{"Binder": "KKAKKPKTVKAKP [Unmod H1 variant K K A K K P K T V K A K P]", "Value Observed": 0.000628}
{"Binder": "KAKKPAATRKSSK [Unmod H1 variant K A K K P A A T R K S S K]", "Value Observed": 0.00103}
{"Binder": "AKKKLAATPKKAK [Unmod H1 variant A K K K L A A T P K K A K]", "Value Observed": 0.000799}
{"Binder": "GVSLAALKKALAA [Unmod H1 variant G V S L A A L K K A L A A]", "Value Observed": 0.00262}
{"Binder": "AAGAKKAKSPKKA [Unmod H1 variant A A G A K K A K S P K K A]", "Value Observed": 0.00143}
{"Binder": "TKPGASKVATKTK [Unmod H1 variant T K P G A S K V A T K T K]", "Value Observed": 0.00097}

Numbers sourced from the supplement of paper PMC4022240.
